Target: Potassium voltage-gated channel subfamily KQT member 2 (Rattus norvegicus) (UniProt O88943)
Sequence (O88943 whole entry, looked up): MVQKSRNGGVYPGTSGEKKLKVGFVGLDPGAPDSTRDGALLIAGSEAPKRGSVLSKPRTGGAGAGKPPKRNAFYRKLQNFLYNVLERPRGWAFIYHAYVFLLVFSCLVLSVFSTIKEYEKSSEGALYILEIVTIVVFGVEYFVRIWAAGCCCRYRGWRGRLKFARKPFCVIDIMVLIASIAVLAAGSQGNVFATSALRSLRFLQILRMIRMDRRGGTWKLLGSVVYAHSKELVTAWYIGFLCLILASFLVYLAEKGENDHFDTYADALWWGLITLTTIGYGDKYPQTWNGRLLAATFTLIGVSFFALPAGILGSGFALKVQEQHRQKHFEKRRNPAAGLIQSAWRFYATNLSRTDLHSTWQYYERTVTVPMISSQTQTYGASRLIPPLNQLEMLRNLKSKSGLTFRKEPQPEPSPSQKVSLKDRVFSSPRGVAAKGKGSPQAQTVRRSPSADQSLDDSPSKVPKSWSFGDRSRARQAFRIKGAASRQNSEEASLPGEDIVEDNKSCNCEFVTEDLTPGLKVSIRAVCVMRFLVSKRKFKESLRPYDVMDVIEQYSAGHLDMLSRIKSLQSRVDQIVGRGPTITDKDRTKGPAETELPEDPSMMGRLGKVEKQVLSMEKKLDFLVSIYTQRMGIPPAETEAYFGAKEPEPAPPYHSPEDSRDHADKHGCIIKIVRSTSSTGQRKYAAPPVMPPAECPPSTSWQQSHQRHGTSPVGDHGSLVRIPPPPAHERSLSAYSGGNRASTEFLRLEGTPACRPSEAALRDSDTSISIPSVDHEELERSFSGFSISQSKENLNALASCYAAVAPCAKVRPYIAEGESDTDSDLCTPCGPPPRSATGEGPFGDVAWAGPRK
Test: concentration-dependent KCNQ2 opening potency – cell-based, FluxOR thallium flux, mode of action, dose response (AID 493037)
Conditions: KCNQ2-expressing cells, FluxOR thallium flux fluorescence
Here the recorded EC50 is given for each entry.

compound="Cc1ccc(C)c(NC(=O)C2CC3CCC2C3)c1 (stereo not given)" data_value="1050 nM"

# query: EC50 of entry `CCCCC(=O)Nc1c(C)cc(C)cc1Cl`
3750 nM

# query: EC50 of entry Cc1cc(C)c(NC(=O)C2CC3CCC2C3)c(C)c1 (stereo not given)
359 nM

# query: EC50 of entry Cc1cccc(C)c1NC(=O)C1CC2CCC1C2 (stereo not given)
2050 nM

# query: EC50 of entry `Cc1cc(C)c(NC(=O)CC(C)(C)C)c(Cl)c1`
2100 nM
